assay: LNCaP granularity increase inducers, single-point recheck – cell-based, side scatter shift, flow cytometry, confirmation (AID 1069); conditions: LNCaP differentiation, 4 d, side scatter shift, at 10 µM, stronger effect = higher value;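 also: LNCaP human prostate cancer cells in low-serum medium with charcoal-stripped FBS; percent of cells with raised granularity gated so DMSO controls show 10%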
Entry flag: condition met if side scatter shift reaches 10%; condition not met if it does not.

1) CN1CCN(c2cc3c(c4c2[nH]c2ccccc24)C(=O)CC(C)(C)C3)CC1: condition met
2) COc1ccccc1N1CCN(Cc2cc(Br)c(O)c3ncccc23)CC1: condition met
3) COc1ccc(CCNC(=O)C2CCCN(Cc3nc(-c4ccccc4C)oc3C)C2)cc1OC (centres undefined): condition not met
4) N=c1n(CCO)c2ccccc2n1CCOc1ccc(Cl)cc1Cl: condition not met
5) Cc1ccccc1-c1nc(CN2CCC(C(=O)N3CCC(C(N)=O)CC3)CC2)c(C)o1: condition met
6) Cc1ccccc1-c1nc(CN2CCCC(C(=O)NCCCN3CCOCC3)C2)c(C)o1 (centres undefined): condition met
7) O=C(CSc1nc2c(c(=O)n1-c1ccc(F)cc1)SCC2)NCC1CCCO1 (centres undefined): condition not met
8) Cc1ccccc1-c1nc(CN2CCC(C(=O)NCCCN3CCOCC3)CC2)c(C)o1: condition met
9) CCOc1ccc(C(=O)Nc2ccc(Cl)cn2)cc1Cl: condition not met
10) CCOC(=O)N1CCC(NC(=O)c2cc3c(-c4ccccc4F)nn(C)c3s2)CC1: condition not met
11) Cc1cc(C)n2nc(SCC(=O)Nc3ccc(F)cc3)nc2n1: condition not met
12) CSc1nc2ccc(Nc3nc(N4CCOCC4)nc(N4CCOCC4)n3)cc2s1: condition not met
13) Cc1oc(-c2ccccc2F)nc1CN1CCC(C(=O)NC2CCCCCCC2)CC1: condition not met
14) Cc1oc(-c2ccc(Cl)cc2)nc1CN1CCC(C(=O)NCc2ccco2)CC1: condition not met
15) Cc1ccccc1CN1CCN(CC(=O)NCCCN2CCN(c3ccc(F)cc3)CC2)C1=O: condition not met
16) CCc1ccc(-c2nc(CN3CCC(C(=O)N4CCN(c5ccccc5)CC4)CC3)c(C)o2)cc1: condition met
17) COc1ccc(C(CC(=O)O)NC(=O)Cc2ccccc2)cc1 (centres undefined): condition not met
18) CCOc1ccc(-n2cc(C(=O)N3CCC(C)CC3)c3cc(OC)c(OC)cc3c2=O)cc1: condition met
19) COC(=O)CN1CCN(C(=O)c2ccc(F)cc2)c2ccccc2C1: condition not met
20) CC1=C(n2nnc3ccccc32)C(c2ccccc2)C(C#N)=C(N)O1 (centres undefined): condition not met
21) COc1ccc(NC(=O)NCCCN2CCN(c3cc(C)ccc3C)CC2)cc1: condition not met
22) CCCCOC(=O)Nc1cc(C(=O)OC)ccc1C(=O)OC: condition not met
23) COc1ccc(-c2cc(C(=O)NCc3ccc(Cl)cc3)no2)cc1OC: condition not met
24) c1ccc(N2CCN(c3nnc(Cc4cccnc4)c4ccccc34)CC2)nc1: condition not met
25) O=C(Cc1coc(-c2ccc(F)cc2)n1)N1CCOCC1: condition not met
26) CCCCn1c2c(c3ccccc31)CCc1nonc1-2: condition not met
27) CN1CCN(c2oc(COc3ccc(-c4ccccc4)cc3)nc2C#N)CC1: condition met
28) O=S1(=O)C=C(Sc2nc3ccccc3s2)c2ccccc21: condition met
29) Nc1ccccc1NC(=O)c1ccccc1N: condition not met
30) CS(=O)(=O)c1nc(-c2cccs2)cc(C(F)(F)F)n1: condition met
31) Cc1nc2c3cnn(-c4ccccc4)c3ncn2n1: condition not met
32) CCn1c(C(=O)NCCCN2CCc3ccccc3C2)cc2sccc21: condition met
33) CCC(C(=O)Nc1ccccc1OC)n1c(C(=O)OC)cc2ccsc21 (centres undefined): condition not met
34) Cc1oc(-c2cccc(Cl)c2)nc1CN1CCC(C(=O)NCc2cccnc2)CC1: condition not met
35) CCN(CCNC(=O)C1CCN(Cc2nc(-c3cccc(Cl)c3)oc2C)CC1)c1ccccc1: condition met
36) CC1CCCCN1CCNC(=O)c1ccc2c(=O)n(CCc3ccccc3)c(=O)[nH]c2c1 (centres undefined): condition met
37) CCOc1ccc(OCC)c(NC(=O)C2CCCN(S(=O)(=O)c3c(C)noc3C)C2)c1 (centres undefined): condition not met
38) COc1ccc2nc(NC(=O)C(NS(=O)(=O)c3cccs3)C(C)C)sc2c1 (centres undefined): condition not met
39) CCc1ccc(-c2nc(CN3CCC(C(=O)NCc4ccco4)CC3)c(C)o2)cc1: condition met
40) COc1cccc(Oc2cnc(N)nc2-c2ccc(OC)cc2O)c1: condition not met
41) CCN1CCCC1CNC(=O)C1CCN(Cc2nc(-c3cccc(Br)c3)oc2C)CC1 (centres undefined): condition met
42) COC(=O)c1ccc2c(=O)n(Cc3ccco3)c(SCC(=O)Nc3ccc(C)c(Cl)c3)nc2c1: condition met
43) Cc1ccc(CNc2nc3ccccc3n3nnnc23)cc1: condition not met

----------
assay: LNCaP granularity increase inducers, single-point recheck – cell-based, side scatter shift, flow cytometry, confirmation (AID 1069); settings: LNCaP differentiation, 4 d, side scatter shift, at 10 µM, stronger effect = higher value;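 also: LNCaP human prostate cancer cells in low-serum medium with charcoal-stripped FBS; percent of cells with raised granularity gated so DMSO controls show 10%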
Each record's side scatter shift is compared with low value: < 5%; medium value: ≥ 5% and < 10%; high value: ≥ 10% to give its class.

1) CC(C)Cc1nc2oc3c(N4CCN(CCO)CC4)ncnc3c2c2c1CCCC2: medium value
2) CCN(CC)CCCNc1oc(-c2cccc(Cl)c2)nc1C#N: high value
3) COC(=O)C1=C(C)N=c2s/c(=C/c3cccs3)c(=O)n2C1c1cccs1 (configuration not stated): high value
4) Cc1sc(CO)c(Sc2ccccc2)c1C(=O)O: low value
5) Cc1oc(-c2ccccc2F)nc1CN1CCC(C(=O)NCc2cccs2)CC1: medium value
6) O=C(CN1CCC(n2nnc3cc(F)ccc32)CC1)Nc1ccc2c(c1)CCC2: low value
7) CCN1CCN(CCNC(=O)C2CCN(Cc3nc(-c4ccc(Cl)cc4)oc3C)CC2)CC1: high value
8) CCn1c(SCC(=O)Nc2ccccc2F)nc2c(c1=O)SC(C)C2 (configuration not stated): low value
9) Cc1oc(-c2ccc(Cl)cc2)nc1CN1CCCC(C(=O)NCc2ccco2)C1 (configuration not stated): high value
10) O=C(NCc1ccc(Cl)cc1)c1noc2c1CCCC2: low value
11) Cc1cccc(-c2nc(CN3CCCC(C(=O)NC4CCCCCC4)C3)c(C)o2)c1 (configuration not stated): high value
12) CCN(CCNC(=O)C1CCCN(Cc2nc(-c3ccc(OC)cc3)oc2C)C1)c1ccccc1 (configuration not stated): high value
13) Cc1ccc(Nc2cc(=O)n(C3CCCCC3)c(=O)[nH]2)cc1C: high value
14) COc1ccc(-c2ccc(-c3nnn(CC(C)=O)n3)cc2)cc1: low value
15) COc1ccc(CCn2c(=N)c(C(=O)NCc3ccco3)cc3c(=O)n4ccccc4nc32)cc1: low value
16) COc1ccc(-c2cc(C(F)(F)F)nc(N3CCN(C)CC3)n2)cc1: high value
17) CCS(=O)(=O)N1CCC(C(=O)NCCCN2CCN(c3ccccc3F)CC2)CC1: high value
18) Cn1nc(-c2ccc(Cl)cc2)c2cc(C(=O)NCCN3CCOCC3)sc21: medium value
19) O=C(NCCCN1CCN(c2ccccc2F)CC1)C1CCCN(S(=O)(=O)c2cnc[nH]2)C1 (configuration not stated): low value
20) CCn1c(=O)cc(SCC(=O)NCCCN2CCN(c3ccccc3F)CC2)c2ccccc21: high value

----------
assay: LNCaP granularity increase inducers, single-point recheck – cell-based, side scatter shift, flow cytometry, confirmation (AID 1069); conditions: LNCaP differentiation, 4 d, side scatter shift, at 10 µM, stronger effect = higher value;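 also: LNCaP human prostate cancer cells in low-serum medium with charcoal-stripped FBS; percent of cells with raised granularity gated so DMSO controls show 10%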
measured.property: side scatter shift (%)

1) O=C(Cn1cnc2ccccc2c1=O)NCCC(=O)N1CCN(c2ccccc2)CC1: 4
2) O=C(NCCCN1CCN(c2cccc(Cl)c2)CC1)c1cccc(N2CCCC2=O)c1: 7.7
3) COc1ccc(-n2c3c(cc(C(=O)N4CCC(C)CC4)c2=O)C(=O)CC(C)(C)C3)cc1: 1.8
4) Cc1cc(O)c(-c2cc(C(=O)Nc3ccc(S(=O)(=O)N4CCOCC4)cc3)[nH]n2)cc1C: 9.8
5) Cc1ccc(C)c2[nH]c(=O)c(CN(CCN3CCCC3)C(=O)Nc3cccc(Cl)c3)cc12: 49.6
6) N=c1c(C(=O)NC2CCCC2)cc2c(=O)n3ccccc3nc2n1C1CCCC1: 7.85
7) COc1cc2nc(N3CCN(C(=O)C4COc5ccccc5O4)CC3)nc(N)c2cc1OC (configuration not stated): 55.2
8) COc1ccc(Cl)c(N2CCN(CCCNC(=O)Nc3ccc(C)cc3)CC2)c1: 12
9) CCn1c(=O)cc(OCC(=O)O)c2ccccc21: 6.7
10) Cc1cccc(OCCn2c(=O)n(C)c3ccccc32)c1: 4.5
11) Cc1ccc(-n2nc3cc(Cl)c(NC(=O)c4ccco4)cc3n2)cc1: 2.8
12) Cc1cc(C)nc(N2CCC(C(=O)Nc3ccc(Oc4ccccc4)cc3)CC2)n1: 3.05
13) CCN(CCCNS(=O)(=O)c1ccc2c(c1)oc(=O)n2C)c1cccc(C)c1: 4.85
14) CCc1nn(C(C)C(=O)N2CCc3ccccc3C2)c(=O)c2cc3occc3n12 (configuration not stated): 2.8
15) Cc1ccc(C)c(N2CCN(CCCNC(=O)Cn3cc4c(n3)CCCCC4)CC2)c1: 7.55
16) CCOC(=O)C1=C(O)CCn2c1nc1ccccc12: 3.3
17) CCCCCn1c(=N)n(CC(O)COc2ccccc2OC)c2ccccc21 (configuration not stated): 25.1
18) CCOC(=O)C1CCN(S(=O)(=O)c2ccc(-c3nc4ccccc4s3)s2)CC1: 7.85
19) COC(=O)c1cc(-c2ccccc2)sc1NC(=O)c1cc(C)on1: 13.2
20) CCN1C(=O)OC2(CCCCC2)C1(C)O (configuration not stated): 12.7
21) COc1cc(C2C3=C(Nc4ncnn42)c2ccccc2CC3)cc(OC)c1OC (configuration not stated): 4.5
22) COc1ccc(Nc2nc(N3CCCC3)c3ccccc3n2)cc1: 21.6
